In this section, each of the substances is paired with its reported EC50.
# STUDY_TARGET: human GcgR (Homo sapiens, UniProt P47871)
# Sequence (P47871 26-477): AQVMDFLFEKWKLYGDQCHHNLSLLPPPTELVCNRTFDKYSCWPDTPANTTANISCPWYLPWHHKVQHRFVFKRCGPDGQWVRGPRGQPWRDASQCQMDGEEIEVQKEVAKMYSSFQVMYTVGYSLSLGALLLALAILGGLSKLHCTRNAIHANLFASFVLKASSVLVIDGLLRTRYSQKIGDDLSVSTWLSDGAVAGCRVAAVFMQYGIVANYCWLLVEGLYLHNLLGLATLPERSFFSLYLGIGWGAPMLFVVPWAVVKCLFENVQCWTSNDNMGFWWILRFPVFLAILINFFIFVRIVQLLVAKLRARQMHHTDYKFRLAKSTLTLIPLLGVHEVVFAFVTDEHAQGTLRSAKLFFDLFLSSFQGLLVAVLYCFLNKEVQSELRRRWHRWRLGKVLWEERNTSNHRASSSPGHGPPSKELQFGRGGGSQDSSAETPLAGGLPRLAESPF
# MEASUREMENT_NOTES: Functional cAMP activity in the presence of 1% HSA
# Format: cell-based
# CONDITION_INFO: read-out: cAMP Rel EC50, hGcgR
Starred links: 1 amine or outer side, 2 acyl side, 3 side chain; linkers in the order of their positions; H or OH if unused. Non-standard residues stand in square brackets, D forms with d. Groups on a side chain read outwards from the residue. No end group written: not given here. *: point of attachment. C18 diacid = O=C(O)CCCCCCCCCCCCCCCCC(=O)*; αMePhe(2-F) = C[C@](N)(Cc1ccccc1F)C(=O)O; γGlu = O=C(O)[C@H](CCC(=O)[*:2])N[*:1]; αMe4Pal = C[C@](N)(Cc1ccncc1)C(=O)O; αMeY = C[C@](N)(Cc1ccc(O)cc1)C(=O)O; 4Pal = N[C@@H](Cc1ccncc1)C(=O)O; αMeL = CC(C)C[C@](C)(N)C(=O)O; αMeS = C[C@](N)(CO)C(=O)O; Orn = NCCC[C@H](N)C(=O)O; AEEA = NCCOCCOCC(=O)O; Aib = CC(C)(N)C(=O)O
Answer with a number only, understood to be in nM.

SUBSTANCE	EC50, nM
Y[Aib]QGT[αMePhe(2-F)]TSD[4Pal][αMeS]I[αMeL]LD[Orn]K([γGlu-γGlu-C18 diacid])AQ[αMe4Pal]EFI[dE][αMeY]LVEGGPSSGAPPPSGSE-NH2 [Example 1162]	199
H-Y[Aib]QGT[αMePhe(2-F)]TSD[4Pal][αMeS]I[αMeL]LD[Orn]K([γGlu-γGlu-C18 diacid])AQ[αMe4Pal]EFI[dE][αMeY]LIEGGPSSGEPPPSGS-NH2 [Example 715]	126
H-Y[Aib]QGTFTSDFS[Orn][αMeL]LDKK([γGlu-AEEA-γGlu-C18 diacid])AQ[Aib]AFIEYLLE[Aib]GESSGAPPPSGS-NH2 [Example 244]	1230

# input // lookup EC50 for H-Y[Aib]QGTFTSDFS[Orn][αMeL]LDKK([AEEA-AEEA-γGlu-C18 diacid])AQ[Aib]AFIEYLLE[Aib]GHSSGAPPPSGS-NH2 [Example 181]
# output 772

# input Subsequent entry: H-Y[Aib]QGTFTSD[4Pal]SK[αMeL]LDKK([AEEA-γGlu-C18 diacid])AQ[Aib]AFIE[αMe4Pal]LIE[Aib]GPSSGAPPPSGS-NH2 [Example 914]
# output 983

# input Subsequent entry: H-Y[Aib]QGTFTSD[4Pal]S[Orn][αMeL]LDKK([γGlu-γGlu-C18 diacid])AQ[Aib]AFIE[αMeY]LLEGGPSSGAPPPSGS-NH2 [Example 942]
# output 1560

# input Subsequent entry: H-Y[Aib]QGTFTSD[4Pal]SQ[αMeL]LDKK([AEEA-γGlu-C18 diacid])AQ[αMe4Pal]AFIE[αMe4Pal]LIEGGPSSGAPPPSGS-NH2 [Example 948]
# output 537

# input Subsequent entry: H-Y[Aib]Q[dA]T[αMePhe(2-F)]TSD[4Pal][αMeS]I[αMeL]LD[Orn]K([AEEA-γGlu-C18 diacid])AQ[Aib]EFI[dE][αMeY]LIEGGPSSGAPPPSGSE-NH2 [Example 1222]
# output 470

# input Subsequent entry: H-Y[Aib]QGT[αMePhe(2-F)]TSD[4Pal][αMeS]I[αMeL]LD[Orn]K([AEEA-γGlu-C18 diacid])AQ[αMe4Pal]EFI[dE][αMeY]LIEGGPSSGEPPPEGGGE-NH2 [Example 760]
# output 239

# input Subsequent entry: H-Y[Aib]QGT[αMePhe(2-F)]TSD[4Pal]SILLD[Orn]K([γGlu-γGlu-C18 diacid])AQ[Aib][Orn]FIEYLQEGGPSSGAPPPSGTEE-NH2 [Example 582]
# output 1060

# input Subsequent entry: Y[Aib]QGTFTSD[4Pal]SQ[αMeL]LD[Orn]K([AEEA-γGlu-C18 diacid])AQ[αMe4Pal]AFIE[αMeY]LLEGGPSSGAPPPSGS-NH2 [Example 932]
# output 513
